B1: TPR 5TU (parent)
chain: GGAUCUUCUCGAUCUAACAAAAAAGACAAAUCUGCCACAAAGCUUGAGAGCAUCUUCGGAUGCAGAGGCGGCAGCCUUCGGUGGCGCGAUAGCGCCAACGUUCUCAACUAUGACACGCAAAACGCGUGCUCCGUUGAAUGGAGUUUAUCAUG

- Variants of: B1
- test description: polymerase ribozyme fitness, log enrichment relative to wild type (log ratio); higher = more active; in vitro selection for triplet polymerase activity
Variants at the floor of the assay were thinned out.
value type: polymerase ribozyme fitness (log ratio)
Answers are plain numbers.

Sample records with polymerase ribozyme fitness (log ratio):
mutation key: C54G U82G
polymerase ribozyme fitness (log ratio): -0.687

mutation key: G34U C76U A119U
polymerase ribozyme fitness (log ratio): -3.19

mutation key: C35U C118U
polymerase ribozyme fitness (log ratio): -0.573

mutation key: C38A U56A
polymerase ribozyme fitness (log ratio): -0.602

// for each variant in input: emit polymerase ribozyme fitness (log ratio)
1. A3G U4A C54U U102G C125G
2. A47G G84U C149U
3. G86U C108U
4. C85A C125A
5. C14U G94A
6. A3C C14G A52C C93U G141U

[-3.99, -3.35, -4.14, -2.27, -1.85, -4.16]
